experiment: chemical genetic growth profiling, strain panel (AID 1159580);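 further: tested at 20 µM; growth read once vehicle control cultures reached saturation at 30 °C; 1 = growth at the plate median or of vehicle wells; lower values mean less growth of the strain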; details: S. cerevisiae deletion strains, growth OD, locus YIR030C, strain dcg1, stronger effect = lower value
Hit rate of the full screen: of about 5,500 compounds, about 2,000 (36%) were called active. Another 18% or so got no clear call; they are omitted. The list shows a part of the results.
READOUT: normalized growth
One number for each entry.

{"COMPOUND": "COC1C(O)C(O)C(O)[C@@H](O)C1O (some centres not stated)", "READOUT": "normalized growth", "TEST_VALUE": 1.02}
{"COMPOUND": "COC(=O)COc1cc(Cl)c(Cl)cc1Cl", "READOUT": "normalized growth", "TEST_VALUE": 0.953}
{"COMPOUND": "CC(C)(C)CC(C)(C)c1ccc(OCCOCC[N+](C)(C)Cc2ccccc2)cc1", "READOUT": "normalized growth", "TEST_VALUE": 0.985}

Provide reported normalized growth for each item, in the same order as listed.
1. CC(=O)OCC(CCn1cnc2cnc(N)nc21)COC(C)=O
2. CCCCCCCCCCCCC[N+](C)(C)Cc1ccccc1
3. CNc1ccccc1C(=O)N1CCc2c([nH]c3ccccc23)C1=O
4. Cc1cc(C(C)(C)CC(C)(C)C)ccc1OCCOCC[N+](C)(C)Cc1ccccc1
5. COc1ccc(-c2coc3c(OC)c(O)ccc3c2=O)cc1
6. CC(C(=O)O)c1ccc2c(c1)[nH]c1ccc(Cl)cc12 (configuration not stated)

0.976
0.0594
0.975
0.0563
0.962
0.992

# batch: return normalized growth for each of the 3 compounds below
1. CCC(C(=O)O)c1ccccc1 (configuration not stated)
2. COc1cc(O)c(C(=O)c2ccccc2)cc1O
3. COc1ccc(-c2coc3c(O)c(OC)ccc3c2=O)cc1

1.01
0.976
0.944

Batch of 5 compounds: report normalized growth for each.
1. O=C(O)c1cc(=O)c2cc(Cl)ccc2[nH]1
2. CC(=O)[C@H]1CCC2C3C[C@H](C)C4=CC(=O)CC[C@]4(C)C3[C@@H](O)C[C@@]21C (some centres not stated)
3. O=C(O)C1C(O)CCC2CN3CCc4c([nH]c5ccccc45)C3CC21 (configuration not stated)
4. O=C(O)c1cc(=O)c2ccc(Cl)cc2[nH]1
5. CC1(C)C2CC[C@]3(C)C(C(=O)C=C4[C@@H]5C[C@@](C)(C(=O)O)CC[C@]5(C)CC[C@]43C)[C@@]2(C)CC[C@@H]1O (some centres not stated)

1: 1.01; 2: 0.975; 3: 1.01; 4: 0.995; 5: 1.01

###

test: chemical genetic growth profiling, strain panel (AID 1159580); conditions: S. cerevisiae deletion strains, growth OD, locus YLR258W, strain gsy2, stronger effect = lower value
Out of some 5,500 compounds screened, about 2,000 (36%) were called active. Inconclusive results (about 18%) are left out. The list shows a part of the results.
READOUT: normalized growth
Give bare numbers.

Parameter requested: normalized growth. Apply to each item below.
1. COc1ccc2c(c1)[C@@]1(C)CCC(=O)C[C@H]1CC2
2. COC(=O)COc1cc(Cl)c(Cl)cc1Cl
3. COc1cccc2c1CCC1CC(=O)CCC21C (configuration not stated)
4. CC[C@@H](CO)NCCN[C@@H](CC)CO
5. O=C(O)c1cc(=O)c2ccc(Cl)cc2[nH]1
6. CC(C(=O)O)c1ccc2c(c1)[nH]c1ccc(Cl)cc12 (configuration not stated)
7. COc1ccc2c(c1)C1(C)CCC(=O)CC1CC2 (configuration not stated)

1. 0.967
2. 0.994
3. 0.983
4. 1.02
5. 1.03
6. 0.976
7. 1.02

###

assay: chemical genetic growth profiling, strain panel (AID 1159580);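 further: tested at 20 µM; growth read once vehicle control cultures reached saturation at 30 °C; 1 = growth at the plate median or of vehicle wells; lower values mean less growth of the strain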; details: S. cerevisiae deletion strains, growth OD, locus YGL253W, strain hxk2, stronger effect = lower value
Out of some 5,500 compounds screened, about 2,000 (36%) were called active. Inconclusive results (about 18%) are left out. The list shows a part of the results.
Provide the reported normalized growth of each item.

Some solved cases for reference:
{"COMPOUND": "CCC1(c2ccc(N)cc2)CCC(=O)NC1=O (stereo unspecified)", "READOUT": "normalized growth", "TEST_VALUE": "0.967 (inactive)"}
{"COMPOUND": "COc1cc(OC)c2c(c1)O[C@H](c1ccc(OC)c(OC)c1)[C@@H](O)C2", "READOUT": "normalized growth", "TEST_VALUE": "0.939 (inactive)"}
{"COMPOUND": "OCc1ccccc1O[C@@H]1O[C@H](CO)[C@@H](O)[C@H](O)[C@H]1O", "READOUT": "normalized growth", "TEST_VALUE": "0.987 (inactive)"}
{"COMPOUND": "CC(=O)O[C@@](C)(CCC=C(C)C)C1CC=C(C)CC1 (stereo partly specified)", "READOUT": "normalized growth", "TEST_VALUE": "0.987 (inactive)"}
{"COMPOUND": "CCc1ccc(CCOc2ccc(CC3SC(=O)NC3=O)cc2)nc1 (stereo unspecified)", "READOUT": "normalized growth", "TEST_VALUE": "0.993 (inactive)"}
{"COMPOUND": "O=[N+]([O-])O[C@H]1CO[C@H]2[C@@H]1OC[C@H]2O[N+](=O)[O-]", "READOUT": "normalized growth", "TEST_VALUE": "1.01 (inactive)"}

Please report normalized growth for every entry that follows.
1. CC(C)[C@H](N)C(=O)OCCOCn1cnc2c(=O)[nH]c(N)nc21
2. C=C1CC[C@H](O)C/C1=C/C=C1\CCC[C@]2(C)C([C@H](C)/C=C/[C@H](C)C(C)C)CC[C@@H]12 (stereo partly specified)
3. COC1C(O)C(O)C(O)[C@@H](O)C1O (stereo partly specified)
4. O=C(O)C1CC([C@@H]2CCCCN2)CN2CCCCC12 (stereo partly specified)
5. CN1C2CC3C[C@H]1C(O3)C2O (stereo partly specified)

1: 0.981 (inactive); 2: 0.989 (inactive); 3: 0.966 (inactive); 4: 0.999 (inactive); 5: 1.01 (inactive)

###

Record form. Attribute: normalized growth. Fill in for each entry.
assay: chemical genetic growth profiling, strain panel (AID 1159580);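 further: tested at 20 µM; growth read once vehicle control cultures reached saturation at 30 °C; 1 = growth at the plate median or of vehicle wells; lower values mean less growth of the strain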; details: S. cerevisiae deletion strains, growth OD, locus YNL233W, strain BNI4, stronger effect = lower value
Out of some 5,500 compounds screened, about 2,000 (36%) were called active. About 18% were inconclusive and are not listed. The list shows a part of the results.
Give bare numbers.

Recorded results for 2 compounds are shown here.
{"COMPOUND": "CCc1ccc(CCOc2ccc(CC3SC(=O)NC3=O)cc2)nc1 (stereo unspecified)", "normalized growth": 1.01}
{"COMPOUND": "Cc1cc(=O)c2c(O)cc(O)c(C)c2o1", "normalized growth": 0.941}

Would you mind giving normalized growth for every compound in the list below?
1. CC(=O)O[C@]1(C(C)=O)CCC2C3C=C(C)C4=CC(=O)CCC4(C)C3CCC21C (stereo partly specified)
2. Cc1cc(=O)c2c(O)c(C)c(O)cc2o1
3. CC(=O)O[C@]1(C(C)=O)CCC2C3C[C@H](C)C4=CC(=O)CC[C@]4(C)C3CC[C@@]21C (stereo partly specified)
4. COc1cc(O)c2c(=O)cc(C)oc2c1CC=C(C)C

1. 0.862
2. 0.956
3. 0.989
4. 0.852

###

experiment: chemical genetic growth profiling, strain panel (AID 1159580);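 further: tested at 20 µM; growth read once vehicle control cultures reached saturation at 30 °C; 1 = growth at the plate median or of vehicle wells; lower values mean less growth of the strain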; settings: S. cerevisiae deletion strains, growth OD, locus YOR290C, strain snf2, stronger effect = lower value
The whole screen tested about 5,500 compounds, of which about 2,000 (36%) were called active. Not shown: some 18% with an inconclusive outcome. The list shows a part of the results.
What normalized growth was measured for each of the following?
Answers are plain numbers.

# count of solved cases: 3
{"COMPOUND": "COc1ccc2c(c1)OC[C@@H](Cc1ccc(OC)c(OC)c1)[C@@H]2O", "normalized growth": 1}
{"COMPOUND": "COc1ccc2c(c1)[C@@]1(C)CCC(=O)C[C@H]1CC2", "normalized growth": 0.957}
{"COMPOUND": "O=C(Cc1ccccc1)NO", "normalized growth": 0.969}

Record normalized growth for all entries; do not skip any.
1. CC(=O)OCC(CCn1cnc2cnc(N)nc21)COC(C)=O
2. O=C(/C=C/C=C/c1ccc2c(c1)OCO2)N1CCCCC1
3. N#Cc1c(Cl)c(Cl)c(Cl)c(C#N)c1Cl
4. COc1ccc2c(c1)OC[C@@H](Cc1ccc(OC)c(OC)c1)[C@H]2O
5. COc1ccc2c(c1)C1(C)CCC(=O)CC1CC2 (stereo not given)
6. NC[C@@H]1O[C@H](O[C@@H]2[C@@H](CO)OC(O[C@@H]3[C@@H](O)[C@H](N)C[C@H](N)[C@H]3OC3O[C@H](CN)[C@@H](O)[C@H](O)[C@H]3N)[C@@H]2O)[C@H](N)[C@@H](O)[C@@H]1O (stereo not given in full)

1.01
0.929
0.0764
0.987
0.981
1.04

For the compound COc1cccc2c1CCC1CC(=O)CCC21C (stereo not given) , what normalized growth is on record? 0.985
